- target entity: Glutamate receptor ionotropic AMPA (Homo sapiens, UniProt P42261+P42262+P42263+P48058)
pKi: −log10 of the molar value.
Quick rule: pKi of at least 7 means YES, below that means NO.

>>> group_label("O=C(NCc1ccn(-c2cc3nc(O)c(O)nc3cc2[N+](=O)[O-])c1)Nc1ccccc1")
"NO"
>>> group_label("COC(=O)c1cccn1-c1cc2nc(O)c(O)nc2cc1C(F)(F)F")
"NO"
>>> group_label("O=C(O)Cn1c(=O)c(=O)[nH]c2cc(C(F)(F)F)c(-n3ccc(CNC(=O)Nc4ccc([N+](=O)[O-])cc4)c3)cc21")
"YES"
>>> group_label("O=C(O)Cn1c(=O)c(=O)[nH]c2cc(C(F)(F)F)c(-n3ccc(CNC(=O)Nc4ccc(C(F)(F)F)cc4)c3)cc21")
"YES"
>>> group_label("NCc1ccn(-c2cc3c(cc2C(F)(F)F)[nH]c(=O)c(=O)n3CC(=O)O)c1")
"NO"

Hello, I need to know if "NCc1ccn(-c2cc3nc(O)c(O)nc3cc2C(F)(F)F)c1" has measured pKi not below 7. Thanks!
NO

Hello, I need to know if "O=C(O)Cn1c(=O)c(=O)[nH]c2cc(C(F)(F)F)c(-n3ccc(CNC(=O)NCc4ccccc4)c3)cc21" has measured pKi not below 7. Thanks!
YES

Hello, I need to know if "Oc1nc2cc(-n3cccc3)c(C(F)(F)F)cc2nc1O" has measured pKi not below 7. Thanks!
NO
